Below are molecules with their IC50 as measured on human (His)6DGAT1 (Homo sapiens, UniProt O75907).
Sequence (O75907 whole entry): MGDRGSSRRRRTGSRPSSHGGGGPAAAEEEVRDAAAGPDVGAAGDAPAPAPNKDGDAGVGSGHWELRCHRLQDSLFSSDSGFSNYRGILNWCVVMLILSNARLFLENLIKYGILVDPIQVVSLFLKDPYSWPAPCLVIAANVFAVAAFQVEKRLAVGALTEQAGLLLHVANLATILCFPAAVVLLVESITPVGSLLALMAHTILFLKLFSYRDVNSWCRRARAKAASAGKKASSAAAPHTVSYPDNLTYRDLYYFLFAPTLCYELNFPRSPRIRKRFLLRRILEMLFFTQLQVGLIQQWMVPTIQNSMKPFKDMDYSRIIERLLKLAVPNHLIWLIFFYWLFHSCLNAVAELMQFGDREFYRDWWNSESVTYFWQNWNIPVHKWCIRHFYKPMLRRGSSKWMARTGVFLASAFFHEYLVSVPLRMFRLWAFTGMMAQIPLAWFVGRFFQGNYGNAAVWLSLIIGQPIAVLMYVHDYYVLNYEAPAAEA
// return numeric value only (unit: µM, not printed)

Noted for O=C(O)CC12CCC(c3ccc(-c4ccc(Nc5nnc(C6CCC6)o5)cn4)cc3)(CC1)OC2 [Example 21] : its IC50 reads 0.36

Quick note, IC50 for CCc1nc(C)c(C(=O)Nc2ccc(-c3ccc(C45CCC(CC(=O)O)(CC4)CO5)cc3)cc2)o1 [Example 18] landed at 2.9

// recorded IC50 for O=C(O)CC12CCC(c3ccc(-c4ccc(Nc5nnc(C6CCC6)o5)cc4)cc3)(CC1)OC2 [Example 19] : 0.26

// recorded IC50 for O=C(O)CC12CCC(c3ccc(-c4cnc(Nc5nnc(C6CCC6)s5)nc4)cc3)(CC1)CO2 [Example 4] : 14

IC50 recorded for this molecule, CC(C)(C)c1cnc(Nc2ccc(-c3ccc(C45CCC(CC(=O)O)(CC4)OC5)cc3)cc2)o1 [Example 15] , is 0.044

Form: molecule = Cc1nc(C(=O)Nc2ccc(-c3ccc(C45CCC(CC(=O)O)(CC4)OC5)cc3)cc2)c(C(F)(F)F)o1 [Example 10] ; IC50 = 0.36

The molecule listed as Cc1nc(C(=O)Nc2ccc(-c3ccc(C45CCC(CC(=O)O)(CC4)OC5)cc3)nc2)c(C(F)(F)F)o1 [Example 12] shows IC50 equal to 0.878

Data point: O=C(O)CC12CCC(c3ccc(-c4ccc(Nc5nnc(C6CCC6)s5)cn4)cc3)(CC1)CO2 [Example 3] ; IC50 = 0.0535

IC50 reading for CC(C)Cc1nnc(Nc2ccc(-c3ccc(C45CCC(CC(=O)O)(CC4)OC5)cc3)cc2)o1 [Example 16] : 0.06

These data points were gathered from patent US8993619B2.
